settings: 333.15 K; 101.33 kPa; Liquid; Sing-around technique in a fixed-path interferometer
experimentalReadout: speed of sound (m/s)

CC(=O)[O-].CCC[NH3+] [propylammonium acetate]: 1437.3
O=C[O-].[NH3+]CCCO [3-hydroxypropylammonium formate]: 1760.4
CCC[NH3+].O=C[O-] [propylammonium formate]: 1471.7
CC(=O)[O-].[NH3+]CCCO [3-hydroxypropylammonium acetate]: 1710.3
O=C([O-])C(F)(F)F.[NH3+]CCCO [3-hydroxypropylammonium trifluoroacetate]: 1403.6

###

conditions: 303.15 K; 101.33 kPa; Liquid; Vibrating tube method
experimentalReadout: mass density (kg/m3)

CC(=O)[O-].[NH3+]CCCO [3-hydroxypropylammonium acetate]: 1109.46
CC(=O)[O-].CCC[NH3+] [propylammonium acetate]: 983.85
O=C([O-])C(F)(F)F.[NH3+]CCCO [3-hydroxypropylammonium trifluoroacetate]: 1304.2
CCC[NH3+].O=C[O-] [propylammonium formate]: 990.77
O=C[O-].[NH3+]CCCO [3-hydroxypropylammonium formate]: 1143.39

###

conditions: 298.15 K; 101.33 kPa; Liquid; Falling or rolling sphere viscometry
experimentalReadout: viscosity (mPa·s)

CCC[NH3+].O=C[O-] [propylammonium formate]: 78.6
CC(=O)[O-].CCC[NH3+] [propylammonium acetate]: 627.41

P: O=C[O-].[NH3+]CCCO [3-hydroxypropylammonium formate]
Q: CC(=O)[O-].[NH3+]CCCO [3-hydroxypropylammonium acetate]
R: O=C([O-])C(F)(F)F.[NH3+]CCCO [3-hydroxypropylammonium trifluoroacetate]
Inquiry: # ascending order, key=viscosity Give the labels in the order specified.
Reply text: P, R, Q

###

settings: 308.15 K; 101.33 kPa; Liquid; Vibrating tube method
experimentalReadout: mass density (kg/m3)

CCC[NH3+].O=C[O-] [propylammonium formate]: 988.09
CC(=O)[O-].CCC[NH3+] [propylammonium acetate]: 980.77
CC(=O)[O-].[NH3+]CCCO [3-hydroxypropylammonium acetate]: 1106.91
O=C([O-])C(F)(F)F.[NH3+]CCCO [3-hydroxypropylammonium trifluoroacetate]: 1300.58
O=C[O-].[NH3+]CCCO [3-hydroxypropylammonium formate]: 1140.95

###

conditions: 323.15 K; 101.33 kPa; Liquid; Vibrating tube method
experimentalReadout: mass density (kg/m3)

CCC[NH3+].O=C[O-] [propylammonium formate]: 980.1
O=C[O-].[NH3+]CCCO [3-hydroxypropylammonium formate]: 1133.73
CC(=O)[O-].CCC[NH3+] [propylammonium acetate]: 971.5
O=C([O-])C(F)(F)F.[NH3+]CCCO [3-hydroxypropylammonium trifluoroacetate]: 1289.72
CC(=O)[O-].[NH3+]CCCO [3-hydroxypropylammonium acetate]: 1099.24

###

conditions: 328.15 K; 101.33 kPa; Liquid; Sing-around technique in a fixed-path interferometer
experimentalReadout: speed of sound (m/s)

CCC[NH3+].O=C[O-] [propylammonium formate]: 1481.6
CC(=O)[O-].[NH3+]CCCO [3-hydroxypropylammonium acetate]: 1719.3
CC(=O)[O-].CCC[NH3+] [propylammonium acetate]: 1447.9
O=C[O-].[NH3+]CCCO [3-hydroxypropylammonium formate]: 1768.3
O=C([O-])C(F)(F)F.[NH3+]CCCO [3-hydroxypropylammonium trifluoroacetate]: 1413.9

###

settings: 298.15 K; 101.33 kPa; Liquid; Sing-around technique in a fixed-path interferometer
experimentalReadout: speed of sound (m/s)

CC(=O)[O-].[NH3+]CCCO [3-hydroxypropylammonium acetate]: 1770.8
CC(=O)[O-].CCC[NH3+] [propylammonium acetate]: 1508
O=C([O-])C(F)(F)F.[NH3+]CCCO [3-hydroxypropylammonium trifluoroacetate]: 1476.5
CCC[NH3+].O=C[O-] [propylammonium formate]: 1542.7
O=C[O-].[NH3+]CCCO [3-hydroxypropylammonium formate]: 1816.3

###

conditions: 323.15 K; 101.33 kPa; Liquid; Falling or rolling sphere viscometry
experimentalReadout: viscosity (mPa·s)

Worked set:
CCC[NH3+].O=C[O-] [propylammonium formate]: 31.43
CC(=O)[O-].[NH3+]CCCO [3-hydroxypropylammonium acetate]: 526

1: O=C[O-].[NH3+]CCCO [3-hydroxypropylammonium formate]
2: O=C([O-])C(F)(F)F.[NH3+]CCCO [3-hydroxypropylammonium trifluoroacetate]
Inquiry: Between item 1 and item 2 , which reported viscosity is smaller? State the label of the item chosen.
Reply text: 1

###

conditions: 333.15 K; 101.33 kPa; Liquid; Vibrating tube method
experimentalReadout: mass density (kg/m3)

CC(=O)[O-].[NH3+]CCCO [3-hydroxypropylammonium acetate]: 1094.13
CCC[NH3+].O=C[O-] [propylammonium formate]: 974.8
O=C([O-])C(F)(F)F.[NH3+]CCCO [3-hydroxypropylammonium trifluoroacetate]: 1282.49
O=C[O-].[NH3+]CCCO [3-hydroxypropylammonium formate]: 1128.97
CC(=O)[O-].CCC[NH3+] [propylammonium acetate]: 965.3

###

details: 293.15 K; 101.33 kPa; Liquid; Vibrating tube method
experimentalReadout: mass density (kg/m3)

O=C[O-].[NH3+]CCCO [3-hydroxypropylammonium formate]: 1148.29
O=C([O-])C(F)(F)F.[NH3+]CCCO [3-hydroxypropylammonium trifluoroacetate]: 1311.44
CC(=O)[O-].CCC[NH3+] [propylammonium acetate]: 989.97
CCC[NH3+].O=C[O-] [propylammonium formate]: 996.18
CC(=O)[O-].[NH3+]CCCO [3-hydroxypropylammonium acetate]: 1114.58

###

details: 343.15 K; 101.33 kPa; Liquid; Falling or rolling sphere viscometry
experimentalReadout: viscosity (mPa·s)

O=C([O-])C(F)(F)F.[NH3+]CCCO [3-hydroxypropylammonium trifluoroacetate]: 76.72
CC(=O)[O-].CCC[NH3+] [propylammonium acetate]: 50.02
O=C[O-].[NH3+]CCCO [3-hydroxypropylammonium formate]: 38.38

1: CC(=O)[O-].[NH3+]CCCO [3-hydroxypropylammonium acetate]
2: CCC[NH3+].O=C[O-] [propylammonium formate]
Inquiry: # returns the entry with the larger viscosity; inputs 1 and 2 State the label of the item chosen.
Reply text: 1
(1: 190.4 mPa·s, 2: 17.57 mPa·s)

###

details: 293.15 K; 101.33 kPa; Liquid; Falling or rolling sphere viscometry
experimentalReadout: viscosity (mPa·s)

Worked set:
CCC[NH3+].O=C[O-] [propylammonium formate]: 96.77
CC(=O)[O-].[NH3+]CCCO [3-hydroxypropylammonium acetate]: 4261.7
O=C[O-].[NH3+]CCCO [3-hydroxypropylammonium formate]: 339.04

1: CC(=O)[O-].CCC[NH3+] [propylammonium acetate]
2: O=C([O-])C(F)(F)F.[NH3+]CCCO [3-hydroxypropylammonium trifluoroacetate]
Inquiry: # returns the entry with the larger viscosity; inputs 1 and 2 State the label of the item chosen.
Reply text: 2

###

conditions: 338.15 K; 101.33 kPa; Liquid; Sing-around technique in a fixed-path interferometer
experimentalReadout: speed of sound (m/s)

O=C([O-])C(F)(F)F.[NH3+]CCCO [3-hydroxypropylammonium trifluoroacetate]: 1393.2
O=C[O-].[NH3+]CCCO [3-hydroxypropylammonium formate]: 1752.5
CCC[NH3+].O=C[O-] [propylammonium formate]: 1461.8
CC(=O)[O-].[NH3+]CCCO [3-hydroxypropylammonium acetate]: 1702.8
CC(=O)[O-].CCC[NH3+] [propylammonium acetate]: 1427.4

###

settings: 343.15 K; 101.33 kPa; Liquid; Vibrating tube method
experimentalReadout: mass density (kg/m3)

CCC[NH3+].O=C[O-] [propylammonium formate]: 969.49
O=C[O-].[NH3+]CCCO [3-hydroxypropylammonium formate]: 1124.25
CC(=O)[O-].[NH3+]CCCO [3-hydroxypropylammonium acetate]: 1089.03
CC(=O)[O-].CCC[NH3+] [propylammonium acetate]: 959.03
O=C([O-])C(F)(F)F.[NH3+]CCCO [3-hydroxypropylammonium trifluoroacetate]: 1275.25

###

details: Glass; DTA
experimentalReadout: Glass transition temperature (°C)

O=C[O-].[NH3+]CCCO [3-hydroxypropylammonium formate]: -24.00
O=C([O-])C(F)(F)F.[NH3+]CCCO [3-hydroxypropylammonium trifluoroacetate]: -28.00
CC(=O)[O-].[NH3+]CCCO [3-hydroxypropylammonium acetate]: -26.00
CC(=O)[O-].CCC[NH3+] [propylammonium acetate]: -26.00

###

details: 313.15 K; 101.33 kPa; Liquid; Sing-around technique in a fixed-path interferometer
experimentalReadout: speed of sound (m/s)

O=C[O-].[NH3+]CCCO [3-hydroxypropylammonium formate]: 1792.3
O=C([O-])C(F)(F)F.[NH3+]CCCO [3-hydroxypropylammonium trifluoroacetate]: 1444.5
CCC[NH3+].O=C[O-] [propylammonium formate]: 1512
CC(=O)[O-].CCC[NH3+] [propylammonium acetate]: 1477
CC(=O)[O-].[NH3+]CCCO [3-hydroxypropylammonium acetate]: 1745.2
